This collection of values is drawn from paper PMC10465233.

tested on: LNCaP tumor-bearing mice; test: Ex vivo biodistribution in LNCaP tumor-bearing mice; design: species or system mouse; conditions: 1 h post-injection
Hi there, I'd appreciate the recorded Tumor:Salivary gland uptake ratio for every entry that follows.
Numbers only.

COc1ccc(CCCC(=O)NCC(=O)N[C@@H](CCCCNC(=O)CN2CCN(CC(=O)[O-])CCN(CC(=O)[O-])CCN(CC(=O)[O-])CC2)C(=O)NC[C@H]2CC[C@H](C(=O)N[C@@H](Cc3c4ccccc4cc4ccccc34)C(=O)NCCCC[C@H](NC(=O)N[C@@H](COCC(=O)O)C(=O)O)C(=O)O)CC2)cc1.[177Lu+3] [[^177Lu]Lu-HTK04028] = 7.60

// moving on: another record for Tumor:Salivary gland uptake ratio
What value of measured Tumor:Salivary gland uptake ratio is listed for COc1ccc(CCCC(=O)NCC(=O)N[C@@H](CCCCNC(=O)CN2CCN(CC(=O)[O-])CCN(CC(=O)[O-])CCN(CC(=O)[O-])CC2)C(=O)NC[C@H]2CC[C@H](C(=O)N[C@@H](Cc3c4ccccc4cc4ccccc34)C(=O)NCCCC[C@H](NC(=O)N[C@@H](CSCC(=O)O)C(=O)O)C(=O)O)CC2)cc1.[177Lu+3] [[^177Lu]Lu-HTK04048] ? 5.64

----------
Answer each item with its documented Tumor:Salivary gland uptake ratio.
system: LNCaP tumor-bearing mice; assay: Ex vivo biodistribution in LNCaP tumor-bearing mice; parameters: species or system mouse; conditions: 1 h post-injection
Give bare numbers.

O=C([O-])CN1CCN(CC(=O)[O-])CCN(CC(=O)NCC2CCC(C(=O)NC(Cc3c4ccccc4cc4ccccc34)C(=O)NCCCCC(NC(=O)NC(CSCC(=O)O)C(=O)O)C(=O)O)CC2)CCN(CC(=O)[O-])CC1.[68Ga+3] (stereo not drawn) [[^68Ga]Ga-HTK03177] = 112

Record Tumor:Salivary gland uptake ratio for all entries; do not skip any.
1. COc1ccc(CCCC(=O)NCC(=O)N[C@@H](CCCCNC(=O)CN2CCN(CC(=O)[O-])CCN(CC(=O)[O-])CCN(CC(=O)[O-])CC2)C(=O)NC[C@H]2CC[C@H](C(=O)N[C@@H](Cc3c4ccccc4cc4ccccc34)C(=O)NCCCC[C@H](NC(=O)N[C@@H](CCCC(=O)O)C(=O)O)C(=O)O)CC2)cc1.[177Lu+3] [[^177Lu]Lu-HTK03170]
2. O=C([O-])CN1CCN(CC(=O)[O-])CCN(CC(=O)NCC2CCC(C(=O)NC(Cc3c4ccccc4cc4ccccc34)C(=O)NCCCCC(NC(=O)NC(COCC(=O)O)C(=O)O)C(=O)O)CC2)CCN(CC(=O)[O-])CC1.[68Ga+3] (stereo not drawn) [[^68Ga]Ga-HTK03187]

[11.3, 133]

----------
tested on: LNCaP tumor-bearing mice; test: Ex vivo biodistribution in LNCaP tumor-bearing mice; parameters: species or system mouse; details: 1 h post-injection
Lab note: compare Tumor:Muscle uptake ratio with 20, writing Satisfied if less and Not satisfied if equal or more.

As a guide, the following entries are already answered.
COc1ccc(CCCC(=O)NCC(=O)N[C@@H](CCCCNC(=O)CN2CCN(CC(=O)[O-])CCN(CC(=O)[O-])CCN(CC(=O)[O-])CC2)C(=O)NC[C@H]2CC[C@H](C(=O)N[C@@H](Cc3c4ccccc4cc4ccccc34)C(=O)NCCCC[C@H](NC(=O)N[C@@H](CCCC(=O)O)C(=O)O)C(=O)O)CC2)cc1.[177Lu+3] [[^177Lu]Lu-HTK03170] = Not satisfied
COc1ccc(CCCC(=O)NCC(=O)N[C@@H](CCCCNC(=O)CN2CCN(CC(=O)[O-])CCN(CC(=O)[O-])CCN(CC(=O)[O-])CC2)C(=O)NC[C@H]2CC[C@H](C(=O)N[C@@H](Cc3c4ccccc4cc4ccccc34)C(=O)NCCCC[C@H](NC(=O)N[C@@H](COCC(=O)O)C(=O)O)C(=O)O)CC2)cc1.[177Lu+3] [[^177Lu]Lu-HTK04028] = Satisfied
O=C([O-])CN1CCN(CC(=O)[O-])CCN(CC(=O)NCC2CCC(C(=O)NC(Cc3c4ccccc4cc4ccccc34)C(=O)NCCCCC(NC(=O)NC(CSCC(=O)O)C(=O)O)C(=O)O)CC2)CCN(CC(=O)[O-])CC1.[68Ga+3] (centres unmarked) [[^68Ga]Ga-HTK03177] = Not satisfied
COc1ccc(CCCC(=O)NCC(=O)N[C@@H](CCCCNC(=O)CN2CCN(CC(=O)[O-])CCN(CC(=O)[O-])CCN(CC(=O)[O-])CC2)C(=O)NC[C@H]2CC[C@H](C(=O)N[C@@H](Cc3c4ccccc4cc4ccccc34)C(=O)NCCCC[C@H](NC(=O)N[C@@H](CSCC(=O)O)C(=O)O)C(=O)O)CC2)cc1.[177Lu+3] [[^177Lu]Lu-HTK04048] = Satisfied

Attention now turns to another entry.
In the record for O=C([O-])CN1CCN(CC(=O)[O-])CCN(CC(=O)NCC2CCC(C(=O)NC(Cc3c4ccccc4cc4ccccc34)C(=O)NCCCCC(NC(=O)NC(COCC(=O)O)C(=O)O)C(=O)O)CC2)CCN(CC(=O)[O-])CC1.[68Ga+3] (centres unmarked) [[^68Ga]Ga-HTK03187] , is Tumor:Muscle uptake ratio less than 20? Not satisfied

----------
Could you please report measured Lungs uptake for the items listed next?
test system: LNCaP tumor-bearing mice; assay: Ex vivo biodistribution in LNCaP tumor-bearing mice; design: species or system mouse; settings: 1 h post-injection
Give your result as the value with the unit written after it.

These recorded examples may help you get a feel for the data.
O=C([O-])CN1CCN(CC(=O)[O-])CCN(CC(=O)NCC2CCC(C(=O)NC(Cc3c4ccccc4cc4ccccc34)C(=O)NCCCCC(NC(=O)NC(COCC(=O)O)C(=O)O)C(=O)O)CC2)CCN(CC(=O)[O-])CC1.[68Ga+3] (centres unmarked) [[^68Ga]Ga-HTK03187] = 0.52 ± 0.09 %ID/g
COc1ccc(CCCC(=O)NCC(=O)N[C@@H](CCCCNC(=O)CN2CCN(CC(=O)[O-])CCN(CC(=O)[O-])CCN(CC(=O)[O-])CC2)C(=O)NC[C@H]2CC[C@H](C(=O)N[C@@H](Cc3c4ccccc4cc4ccccc34)C(=O)NCCCC[C@H](NC(=O)N[C@@H](CSCC(=O)O)C(=O)O)C(=O)O)CC2)cc1.[177Lu+3] [[^177Lu]Lu-HTK04048] = 9.52 ± 1.44 %ID/g
COc1ccc(CCCC(=O)NCC(=O)N[C@@H](CCCCNC(=O)CN2CCN(CC(=O)[O-])CCN(CC(=O)[O-])CCN(CC(=O)[O-])CC2)C(=O)NC[C@H]2CC[C@H](C(=O)N[C@@H](Cc3c4ccccc4cc4ccccc34)C(=O)NCCCC[C@H](NC(=O)N[C@@H](CCCC(=O)O)C(=O)O)C(=O)O)CC2)cc1.[177Lu+3] [[^177Lu]Lu-HTK03170] = 8.06 ± 1.48 %ID/g
COc1ccc(CCCC(=O)NCC(=O)N[C@@H](CCCCNC(=O)CN2CCN(CC(=O)[O-])CCN(CC(=O)[O-])CCN(CC(=O)[O-])CC2)C(=O)NC[C@H]2CC[C@H](C(=O)N[C@@H](Cc3c4ccccc4cc4ccccc34)C(=O)NCCCC[C@H](NC(=O)N[C@@H](COCC(=O)O)C(=O)O)C(=O)O)CC2)cc1.[177Lu+3] [[^177Lu]Lu-HTK04028] = 7.88 ± 1.77 %ID/g

We now examine a further compound.
Name the recorded Lungs uptake for O=C([O-])CN1CCN(CC(=O)[O-])CCN(CC(=O)NCC2CCC(C(=O)NC(Cc3c4ccccc4cc4ccccc34)C(=O)NCCCCC(NC(=O)NC(CSCC(=O)O)C(=O)O)C(=O)O)CC2)CCN(CC(=O)[O-])CC1.[68Ga+3] (centres unmarked) [[^68Ga]Ga-HTK03177] . 0.61 ± 0.08 %ID/g

----------
system: LNCaP tumor-bearing mice; assay: Ex vivo biodistribution in LNCaP tumor-bearing mice; set-up: species or system mouse; conditions: 1 h post-injection
Provide the reported Lacrimal glands uptake of each item.
Give bare numbers, in %ID/g.

Take a look at these entries with their results.
O=C([O-])CN1CCN(CC(=O)[O-])CCN(CC(=O)NCC2CCC(C(=O)NC(Cc3c4ccccc4cc4ccccc34)C(=O)NCCCCC(NC(=O)NC(COCC(=O)O)C(=O)O)C(=O)O)CC2)CCN(CC(=O)[O-])CC1.[68Ga+3] (centres unmarked) [[^68Ga]Ga-HTK03187] = 0.09
COc1ccc(CCCC(=O)NCC(=O)N[C@@H](CCCCNC(=O)CN2CCN(CC(=O)[O-])CCN(CC(=O)[O-])CCN(CC(=O)[O-])CC2)C(=O)NC[C@H]2CC[C@H](C(=O)N[C@@H](Cc3c4ccccc4cc4ccccc34)C(=O)NCCCC[C@H](NC(=O)N[C@@H](COCC(=O)O)C(=O)O)C(=O)O)CC2)cc1.[177Lu+3] [[^177Lu]Lu-HTK04028] = 0.51
COc1ccc(CCCC(=O)NCC(=O)N[C@@H](CCCCNC(=O)CN2CCN(CC(=O)[O-])CCN(CC(=O)[O-])CCN(CC(=O)[O-])CC2)C(=O)NC[C@H]2CC[C@H](C(=O)N[C@@H](Cc3c4ccccc4cc4ccccc34)C(=O)NCCCC[C@H](NC(=O)N[C@@H](CCCC(=O)O)C(=O)O)C(=O)O)CC2)cc1.[177Lu+3] [[^177Lu]Lu-HTK03170] = 0.27
COc1ccc(CCCC(=O)NCC(=O)N[C@@H](CCCCNC(=O)CN2CCN(CC(=O)[O-])CCN(CC(=O)[O-])CCN(CC(=O)[O-])CC2)C(=O)NC[C@H]2CC[C@H](C(=O)N[C@@H](Cc3c4ccccc4cc4ccccc34)C(=O)NCCCC[C@H](NC(=O)N[C@@H](CSCC(=O)O)C(=O)O)C(=O)O)CC2)cc1.[177Lu+3] [[^177Lu]Lu-HTK04048] = 0.42

Now look at this entry.
State the recorded Lacrimal glands uptake for this entry: O=C([O-])CN1CCN(CC(=O)[O-])CCN(CC(=O)NCC2CCC(C(=O)NC(Cc3c4ccccc4cc4ccccc34)C(=O)NCCCCC(NC(=O)NC(CSCC(=O)O)C(=O)O)C(=O)O)CC2)CCN(CC(=O)[O-])CC1.[68Ga+3] (centres unmarked) [[^68Ga]Ga-HTK03177] 0.12
